Data credit: the RNAGym collection of RNA variant scans (doi:10.1073/pnas.2313332121)

B1: TPR t1 (parent)
chain: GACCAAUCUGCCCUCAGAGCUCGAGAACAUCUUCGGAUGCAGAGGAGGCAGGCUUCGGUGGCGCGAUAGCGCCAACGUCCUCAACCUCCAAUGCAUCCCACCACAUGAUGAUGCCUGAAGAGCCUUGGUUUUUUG

- Variants of: B1
- protocol.details: polymerase ribozyme fitness, log enrichment relative to wild type (log ratio); higher = more active; in vitro selection for triplet polymerase activity
readout: polymerase ribozyme fitness (log ratio)
One number for each entry.

Field: example entries. Status: answers known.
C12U G42C C53A G71U C88G G128A G135U; -6.24
G23C U59C C98U C101A U112C; -7.02
C11G C73U C85A A111G; -0.304

For the 6 variants below, give their polymerase ribozyme fitness (log ratio) values.
1. G36U A121C U125A G127U G128C
2. G69C U126A
3. G58U C70G U106C C124U U130A
4. U21C G60U G110A
5. A41C C53G C85A A111U U112A U116C
6. A84U G128C

## Output
-0.954
-3.12
-2.53
-3.6
-6.24
-2.56
